system: UniProtKB I2BJW5
method-description: Cytochrome b Enzyme Assay
experimental-conditions: pH 7.4; 25 °C
Measured IC50 by item
API: value field is a number in µM; no unit string.

Example cases with answers are listed next.
[[record]]
mol = "Nc1ccc2c(-c3cc(C(F)(F)F)ccc3F)nn(Cc3cnccn3)c2c1"
quantity_name = "IC50"
measured_number = 5.48

[[record]]
mol = "COC(=O)Cn1nc(-c2cccc(OCCN(C)C)c2)c2ccccc21"
quantity_name = "IC50"
measured_number = 35.2


Consider the record given below.
Data request: Using the record for COC(=O)Cn1nc(-c2ccccc2Cl)c2ccccc21 , report its IC50.
Data returned: 5.41

====

system: Cytochrome b (Homo sapiens, UniProt P00156)
Sequence (P00156 whole entry): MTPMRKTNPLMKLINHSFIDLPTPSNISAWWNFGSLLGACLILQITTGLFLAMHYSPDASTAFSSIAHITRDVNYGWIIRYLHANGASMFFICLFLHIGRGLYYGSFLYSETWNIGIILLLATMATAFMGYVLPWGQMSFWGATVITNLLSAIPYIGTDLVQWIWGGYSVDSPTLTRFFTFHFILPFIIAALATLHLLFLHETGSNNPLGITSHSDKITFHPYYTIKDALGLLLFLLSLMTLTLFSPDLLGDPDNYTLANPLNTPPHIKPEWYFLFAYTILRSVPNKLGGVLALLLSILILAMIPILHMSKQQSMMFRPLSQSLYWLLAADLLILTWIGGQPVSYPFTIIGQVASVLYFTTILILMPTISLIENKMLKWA
method-description: Cytochrome b Enzyme Assay
experimental-conditions: pH 7.4; 25 °C
Threshold-based label: IC50 under 10 µM gives fulfilled, IC50 not under 10 µM gives not fulfilled.

[[record]]
compound = "COC(=O)Cn1nc(-c2cccc(F)c2)c2ccccc21 [Inz-70]"
group = "not fulfilled"

[[record]]
compound = "COC(=O)Cn1c(C)c(-c2cccc(OCc3ccccc3)c2)c2ccccc21 [Inz-56]"
group = "not fulfilled"

[[record]]
compound = "COC(=O)Cn1nc(-c2cc(C(F)(F)F)ccc2F)c2cccc(C)c21 [Inz-4]"
group = "fulfilled"


Data request: Hello, I'm reviewing records and need to know if IC50 of COC(=O)Cn1nc(-c2ccccc2F)c2ccccc21 [Inz-19] is below 10 µM. Could you check?
Data returned: not fulfilled

====

Reported pIC50 values are given for each entry in this list.
system: Cytochrome b (Candida albicans)
Sequence (I2BJW5 whole entry): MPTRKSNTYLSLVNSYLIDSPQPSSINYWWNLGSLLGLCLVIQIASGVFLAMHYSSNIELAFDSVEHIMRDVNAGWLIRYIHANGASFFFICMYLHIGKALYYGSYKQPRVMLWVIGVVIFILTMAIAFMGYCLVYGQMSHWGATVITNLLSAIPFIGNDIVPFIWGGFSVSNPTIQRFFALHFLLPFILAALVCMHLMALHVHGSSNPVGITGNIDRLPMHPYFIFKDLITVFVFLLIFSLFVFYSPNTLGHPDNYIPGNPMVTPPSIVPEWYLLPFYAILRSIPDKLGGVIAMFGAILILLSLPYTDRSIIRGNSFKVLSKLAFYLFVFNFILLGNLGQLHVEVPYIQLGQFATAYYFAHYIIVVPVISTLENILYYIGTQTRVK
pIC50 here: minus log base 10 of the concentration, concentration in moles per litre.

Illustrative cases are given below, each with its answer.
[[record]]
mol = "COC(=O)Cn1nc(-c2ccccc2C)c2ccccc21"
quantity_name = "pIC50"
measured_number = 5.47

[[record]]
mol = "COC(=O)Cn1nc(-c2cc(OCCCC3CCCCC3)ccc2F)c2ccccc21"
quantity_name = "pIC50"
measured_number = 6.89

[[record]]
mol = "CCOc1cccc(-c2nn(CC(=O)OC)c3ccccc23)c1"
quantity_name = "pIC50"
measured_number = 6.01

[[record]]
mol = "COC(=O)Cn1nc(-c2cccc(O)c2)c2ccccc21"
quantity_name = "pIC50"
measured_number = 4.36

[[record]]
mol = "c1ccc(-c2nn(Cc3nnco3)c3ccccc23)cc1"
quantity_name = "pIC50"
measured_number = 4.75


Data request: Hi! What's the reported pIC50 for CCC(=O)Cn1nc(-c2cccc(OCc3ccccc3)c2)c2ccccc21 on Cytochrome b (Candida albicans)?
Data returned: 4.64

Data request: // same read-out, input: COC(=O)Cn1cc(-c2cccc(OCc3ccccc3)c2)c2ccccc21
Data returned: 4.88

Data request: // same read-out, input: COC(=O)Cn1nc(-c2ccccc2F)c2ccccc21
Data returned: 5.53

Data request: What about this molecule? COC(=O)Cn1nc(-c2cccs2)c2ccccc21
Data returned: 4.82

Data request: Moving on to the next molecule: COC(=O)Cn1nc(-c2cccc(C#N)c2)c2ccccc21
Data returned: 5.00

Data request: COC(=O)Cn1nc(-c2cc(OCc3ccccc3)ccc2F)c2ccccc21 , same question.
Data returned: 7.45

Data request: Now the molecule COC(=O)Cn1nc(-c2cc(C(F)(F)F)ccc2F)c2cccc(C)c21
Data returned: 7.59

====

// endpoint IC50 / system Cytochrome b (Candida albicans, UniProt I2BJW5)
// units = µM; emit number, no label

Guide cases for IC50, answers given:
[[record]]
mol = "COC(=O)Cn1nc(-c2cccc(OCc3ccccc3)c2F)c2ccccc21"
measured_number = 3.27

[[record]]
mol = "COC(=O)Cn1nc(-c2cccc(OCCC(C)(C)C)c2)c2ccccc21"
measured_number = 0.657


Data request: IC50 for COC(=O)Cn1nc(-c2cccc(F)c2)c2ccccc21 ?
Data returned: 5.91

Data request: Similarly, CNc1ccc2c(-c3cc(C(F)(F)F)ccc3F)nn(Cc3cnccn3)c2c1 ?
Data returned: 2.13

====

Read-out record for Cytochrome b (Homo sapiens): IC50

[[record]]
mol = "COC(=O)Cn1nc(-c2cccc(OCCc3ccccc3)c2)c2ccccc21"
system = "Cytochrome b (Homo sapiens)"
quantity_name = "IC50"
result = "13.9 µM"

[[record]]
mol = "O=C(Cn1nc(-c2ccccc2)c2ccccc21)NO"
system = "Cytochrome b (Homo sapiens)"
quantity_name = "IC50"
result = "> 64 µM"

[[record]]
mol = "COC(=O)Cn1nc(-c2cccc(OCc3ccccc3)c2F)c2ccccc21"
system = "Cytochrome b (Homo sapiens)"
quantity_name = "IC50"
result = "> 64 µM"


// switching to the query compound
Data request: Which IC50 value is on record for Cn1nc(-c2cccc(OCc3ccccc3)c2)c2ccccc21 ?
Data returned: > 64 µM

====

system: Cytochrome b (Candida albicans, UniProt I2BJW5)
Sequence (I2BJW5 whole entry): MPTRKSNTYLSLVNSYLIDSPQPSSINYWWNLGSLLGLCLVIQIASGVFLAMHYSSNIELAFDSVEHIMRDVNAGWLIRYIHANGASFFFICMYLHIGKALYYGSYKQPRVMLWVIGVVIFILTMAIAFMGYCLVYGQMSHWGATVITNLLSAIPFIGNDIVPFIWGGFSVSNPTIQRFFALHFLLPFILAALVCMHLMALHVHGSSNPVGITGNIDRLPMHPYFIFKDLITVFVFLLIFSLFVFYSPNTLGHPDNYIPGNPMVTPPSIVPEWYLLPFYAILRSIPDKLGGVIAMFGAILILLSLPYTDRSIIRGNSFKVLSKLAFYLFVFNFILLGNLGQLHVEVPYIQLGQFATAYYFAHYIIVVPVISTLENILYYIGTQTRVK
quantity-name: pIC50
Keep in mind that pIC50 stands for -log10 of concentration in molar terms.

Illustrative cases are given below, each with its answer.
[[record]]
mol = "COC(=O)Cn1nc(-c2cccc(OCc3ccccc3)c2)c2ccccc21"
measured_number = 5.14

[[record]]
mol = "N#Cc1cccc2c(-c3cc(C(F)(F)F)ccc3F)nn(Cc3cnccn3)c12"
measured_number = 4.64


Kindly consider the entry below.
Data request: Entry COC(=O)Cn1nc(-c2ccccc2)c2ccccc21 : reported pIC50 = ?
Data returned: 5.09

====

Hi! I'm sharing some IC50 results obtained with UniProt P00156.

Data request: IC50 for COC(=O)Cn1nc(-c2cccc(OCCC34CC5CC(CC(C5)C3)C4)c2)c2ccccc21 ?
Data returned: 1.08 µM

Data request: Cool, now CCCCCCC1C(=O)O[C@H](C)[C@H](NC(=O)c2cccc(NC=O)c2O)C(=O)O[C@@H](C)[C@@H]1OC(=O)CC(C)C (some centres undefined)
Data returned: 0.007 µM

Data request: Please give the result for COC(=O)CNc1ccccc1Oc1ccccc1 too.
Data returned: > 64 µM

Data request: And COC(=O)Cn1nc(-c2cc(C(F)(F)F)ccc2F)c2c(C)cccc21 ?
Data returned: > 64 µM

Data request: // same read-out, input: COC(=O)Cn1nc(-c2ccccc2)c2ccccc21
Data returned: 45.3 µM

Data request: Input COC(=O)Cn1nc(-c2ccccc2OCc2ccccc2)c2ccccc21
Data returned: > 64 µM

Data request: And for COC(=O)Cn1nc(-c2ccccc2C#N)c2ccccc21 ?
Data returned: > 64 µM

Data request: Would you kindly repeat that for Fc1ccc(C(F)(F)F)cc1-c1nn(Cc2cnccn2)c2ccncc12 ?
Data returned: > 64 µM

Data request: Now consider CN(O)C(=O)Cn1nc(-c2ccccc2)c2ccccc21 and answer again.
Data returned: > 64 µM

====

system: Cytochrome b (Candida albicans, UniProt I2BJW5)
Sequence (I2BJW5 whole entry): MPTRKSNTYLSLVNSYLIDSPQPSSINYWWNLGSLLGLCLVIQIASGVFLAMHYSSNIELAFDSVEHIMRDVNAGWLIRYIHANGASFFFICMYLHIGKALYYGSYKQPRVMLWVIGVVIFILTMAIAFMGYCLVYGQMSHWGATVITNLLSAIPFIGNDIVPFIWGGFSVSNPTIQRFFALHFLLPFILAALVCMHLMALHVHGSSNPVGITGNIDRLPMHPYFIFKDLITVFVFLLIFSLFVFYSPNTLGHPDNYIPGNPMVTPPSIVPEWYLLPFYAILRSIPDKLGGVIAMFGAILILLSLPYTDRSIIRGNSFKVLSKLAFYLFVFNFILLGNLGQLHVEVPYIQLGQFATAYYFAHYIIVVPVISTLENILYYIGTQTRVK
I'd appreciate it if you marked entries true when IC50 is lower than 2000 nM and false when it is not.

Consider the following illustrative entries.
[[record]]
molecule = "Cc1nnc(Cn2nc(-c3ccccc3)c3ccccc32)o1"
group = "false"

[[record]]
molecule = "COC(=O)Cn1nc(-c2cccc(OCCCC3CCCCC3)c2)c2ccccc21"
group = "true"

[[record]]
molecule = "Cn1nnc(Cn2nc(-c3ccccc3)c3ccccc32)n1"
group = "false"


Data request: Would you kindly verify if IC50 of Cn1nnc(Cn2nc(-c3cc(C(F)(F)F)ccc3F)c3ccccc32)n1 is strictly less than 2000 nM?
Data returned: true

Data request: Request: Fc1ccc(C(F)(F)F)cc1-c1nn(Cc2cnccn2)c2cccnc12
Data returned: false
